Tested on: test plant species
Assay info: Post-emergent herbicidal activity test (greenhouse, foliar spray, visual growth reduction)
Assay type: in vivo
Condition label: post-emergence, 336 h, redroot pigweed (Amaranthus retroflexus), 14 Days After Application, 140 g ai/ha, read-out: Visual Growth Reduction (%) AMARE
Recorded pest or weed control at 140 g/ha for the following molecules

Molecule	pest or weed control at 140 g/ha
COc1c(Cl)ccc(-c2ccc(Cl)c(C(=O)OCc3ccccc3)n2)c1F [F299]	60 to 74%
COC(=O)c1nc(-c2cc(C#N)c(C(F)(F)F)cc2Cl)c(F)cc1Cl [F321]	30 to 44%
O=C(O)c1nc(-c2cc3c(cc2F)OC(F)(F)O3)c(F)cc1Cl [F334]	75 to 84%
O=C(O)c1nc(-c2ccc(C(F)(F)F)c(C(F)F)c2F)c(F)cc1Cl [F294]	95 to 100%
COC(=O)c1nc(-c2c(C)cc(C(F)(F)F)cc2Cl)ccc1Cl [F250]	0 to 29%
COC(=O)c1nc(-c2cc(F)c(C(F)(F)F)cc2F)ccc1Cl [F323]	75 to 84%
COC(=O)c1nc(-c2cc(F)c(C(F)(F)F)cc2F)c(Cl)cc1Cl [F325]	60 to 74%
COC(=O)c1nc(-c2cccc(Cl)c2F)ccc1Cl [F277]	0 to 29%
COC(=O)c1nc(-c2ccccc2)c(F)cc1Cl [F219]	0 to 29%
COC(=O)c1nc(-c2ccc(Cl)cc2F)ccc1Cl [F270]	45 to 59%

###

Test system: test plant species
Assay info: Post-emergent herbicidal activity test (greenhouse, foliar spray, visual growth reduction)
Assay type: in vivo
Condition label: post-emergence, 336 h, IPOHE: ivy-leaf morning glory (Ipomoea hederacea), 140 g ai/ha, 14 days after application, read-out: Visual Growth Reduction (%) 14 Days After Application, IPOHE
Source text: Post-emergent Test: Seeds or nutlets of the desired test plant species were planted in Sun Gro Metro-Mix® 360 planting mixture, which typically has a pH of 6.0 to 6.8 and an organic matter content of about 30 percent, in plastic pots with a surface area of 64 square centimeters. In some aspects, to ensure good germination and healthy plants, a fungicide treatment and/or other chemical or physical treatment was applied. […]
Observed property: pest or weed control at 140 g/ha

Chemical string	Observed property	Assay result
O=C(O)c1nc(-c2ncc(C(F)(F)F)cc2Cl)ccc1Cl	pest or weed control at 140 g/ha	95 to 100%
COC(=O)c1nc(-c2ccc(Cl)nc2Cl)ccc1Cl	pest or weed control at 140 g/ha	60 to 74%
COc1cc(C(F)(F)F)ccc1-c1nc(C(=O)OCc2ccccc2)c(Cl)cc1F	pest or weed control at 140 g/ha	95 to 100%
COC(=O)c1nc(-c2ccc(OC(F)(F)F)cc2OC)c(F)cc1Cl	pest or weed control at 140 g/ha	95 to 100%
COC(=O)c1nc(-c2cccc(Cl)c2F)ccc1Cl	pest or weed control at 140 g/ha	0 to 29%
COC(=O)c1nc(-c2cc3c(cc2F)OC(F)(F)O3)ccc1Cl	pest or weed control at 140 g/ha	95 to 100%
COC(=O)c1nc(-c2cc3c(cc2Cl)OCO3)c(F)cc1Cl	pest or weed control at 140 g/ha	85 to 94%
COC(=O)c1nc(-c2cccc3c2OC(F)(F)O3)ccc1Cl	pest or weed control at 140 g/ha	0 to 29%
COC(=O)c1nc(-c2cc3c(cc2OC)OC(F)(F)O3)ccc1Cl	pest or weed control at 140 g/ha	95 to 100%
COC(=O)c1nc(-c2cc(OC)c(C(F)(F)F)cc2Cl)c(F)cc1Cl	pest or weed control at 140 g/ha	95 to 100%
COC(=O)c1nc(-c2ccc(C(F)(F)C(N)=O)cc2Cl)ccc1Cl	pest or weed control at 140 g/ha	0 to 29%
CCN(CC)c1c(Cl)ccc(-c2ccc(Cl)c(C(=O)OC)n2)c1F	pest or weed control at 140 g/ha	0 to 29%
COC(=O)c1nc(-c2ccc3cc[nH]c3c2F)ccc1Cl	pest or weed control at 140 g/ha	0 to 29%
COC(=O)c1nc(-c2ccc(C(F)(F)F)c(N)c2)ccc1Cl	pest or weed control at 140 g/ha	0 to 29%
COC(=O)c1nc(-c2ccc(C(F)(F)F)cc2Cl)cc(Cl)c1Cl	pest or weed control at 140 g/ha	30 to 44%
COC(=O)c1nc(-c2ccc3c(c2)C(F)(F)OC(F)(F)O3)ccc1Cl	pest or weed control at 140 g/ha	30 to 44%
COC(=O)c1nc(-c2ccc(OC(F)F)cc2Cl)c(F)cc1Cl	pest or weed control at 140 g/ha	95 to 100%
O=C(O)c1nc(-c2ccc(C(F)(F)F)cc2Cl)ccc1Cl	pest or weed control at 140 g/ha	95 to 100%
COC(=O)c1nc(-c2ccc(O)cc2Cl)ccc1Cl	pest or weed control at 140 g/ha	0 to 29%
COC(=O)c1nc(-c2cc(F)c(C(F)(F)F)cc2F)c(F)cc1Cl	pest or weed control at 140 g/ha	95 to 100%
COC(=O)c1nc(-c2ccc(OC(F)F)cc2)c(F)cc1Cl	pest or weed control at 140 g/ha	75 to 84%
COC(=O)c1nc(-c2ccc(Oc3ccc(F)cc3)cc2Cl)ccc1Cl	pest or weed control at 140 g/ha	30 to 44%
COCC(F)(F)c1ccc(-c2ccc(Cl)c(C(=O)OC)n2)c(Cl)c1	pest or weed control at 140 g/ha	60 to 74%
COC(=O)c1nc(-c2ccc(Cl)c(OC)c2F)c(F)c(Cl)c1Cl	pest or weed control at 140 g/ha	0 to 29%
COC(=O)c1nc(-c2ccc(C(F)(F)F)cc2Cl)c(Cl)cc1Cl	pest or weed control at 140 g/ha	95 to 100%
COC(=O)c1nc(-c2cc(F)c3c(c2)OC(F)(F)O3)c(F)cc1Cl	pest or weed control at 140 g/ha	95 to 100%
COC(=O)c1nc(-c2ccc(C(C)(F)F)cc2Cl)ccc1Cl	pest or weed control at 140 g/ha	95 to 100%
CCOc1cc(C(F)(F)F)ccc1-c1nc(C(=O)OC)c(Cl)cc1F	pest or weed control at 140 g/ha	95 to 100%
O=C(O)c1nc(-c2ccc(SC(F)(F)F)cc2Cl)c(Cl)cc1Cl	pest or weed control at 140 g/ha	45 to 59%
O=C(O)c1nc(-c2ccc(C(F)(F)F)c(F)c2)ccc1Cl	pest or weed control at 140 g/ha	95 to 100%
COC(=O)c1nc(-c2ccccc2)c(F)cc1Cl	pest or weed control at 140 g/ha	45 to 59%
COC(=O)c1nc(-c2ccc(C(F)(F)F)cc2)c(F)cc1Cl	pest or weed control at 140 g/ha	60 to 74%
COC(=O)c1nc(-c2ccc(C(F)(F)F)c(S(C)(=O)=O)c2Cl)ccc1Cl	pest or weed control at 140 g/ha	0 to 29%
COC(=O)c1nc(-c2ccc(C#N)cc2)c(F)cc1Cl	pest or weed control at 140 g/ha	60 to 74%
COC(=O)c1nc(-c2cc(F)c(C(F)(F)F)cc2Cl)c(Cl)cc1Cl	pest or weed control at 140 g/ha	95 to 100%
COC(=O)c1nc(-c2cc(C(F)(F)F)ccc2Cl)ccc1Cl	pest or weed control at 140 g/ha	0 to 29%
COC(=O)c1nc(-c2ccc(C(F)(F)F)cc2Cl)ccc1F	pest or weed control at 140 g/ha	95 to 100%
COC(=O)c1nc(-c2ccc3c(c2)C(F)(F)OC(F)(F)O3)c(Cl)cc1Cl	pest or weed control at 140 g/ha	0 to 29%
COC(=O)c1nc(-c2ccc3[nH]ccc3c2)c(F)cc1Cl	pest or weed control at 140 g/ha	60 to 74%
COC(=O)c1nc(-c2ccc(C(F)(F)F)cc2Br)ccc1Cl	pest or weed control at 140 g/ha	95 to 100%
O=C(O)c1nc(-c2ccnc(Cl)c2Cl)ccc1Cl	pest or weed control at 140 g/ha	45 to 59%

###

Tested on: test plant species
Assay info: Post-emergent herbicidal activity test (greenhouse, foliar spray, visual growth reduction)
Assay type: in vivo
Condition label: post-emergence, 336 h, wild oat (Avena fatua), 14 Days After Application, 140 g ai/ha, read-out: Visual Growth Reduction (%) AVEFA
Each entry below carries its recorded pest or weed control at 140 g/ha.

Compound	pest or weed control at 140 g/ha
COC(=O)c1nc(-c2ccc3c(c2C)OC(F)(F)O3)c(F)cc1Cl [F233]	45 to 59%
COC(=O)c1nc(-c2ccc(C(F)(F)F)c(F)c2F)c(F)cc1Cl [F310]	60 to 74%
COC(=O)c1nc(-c2cccc(C(F)(F)F)c2F)ccc1Cl [F289]	0 to 29%
COC(=O)c1nc(-c2ccc(C(F)(F)F)c(C)c2Cl)c(F)cc1Cl [F339]	0 to 29%
COC(=O)c1nc(-c2ccc(Cl)c3ccccc23)c(F)cc1Cl [F346]	0 to 29%
O=C(O)c1nc(-c2ccc(C(F)(F)F)c(C(F)F)c2F)c(F)cc1Cl [F294]	60 to 74%
COC(=O)c1nc(-c2ccc(Cl)c(C(F)F)c2Cl)ccc1Cl [F281]	0 to 29%
COC(=O)c1nc(-c2ccc(Cl)cc2F)ccc1Cl [F270]	0 to 29%
COC(=O)c1nc(-c2ccc(O)cc2F)c(F)cc1Cl [F345]	0 to 29%
COC(=O)c1nc(-c2cccc(Cl)c2F)ccc1Cl [F277]	0 to 29%
COC(=O)c1nc(-c2cc(N)c(C(F)(F)F)cc2Cl)ccc1Cl [F211]	0 to 29%
COC(=O)c1nc(-c2cc(F)c(C(F)(F)F)cc2F)c(F)cc1Cl [F324]	30 to 44%
O=C(O)c1nc(-c2ccc(C(F)(F)F)c(F)c2)ccc1Cl [F315]	0 to 29%
CSc1cc(-c2nc(C(=O)O)c(Cl)cc2F)c(Cl)cc1C(F)(F)F [F342]	0 to 29%
COC(=O)c1nc(-c2cc(F)c(OC)cc2F)ccc1Cl [F291]	0 to 29%
O=C(O)c1nc(-c2cc3c(cc2F)OC(F)(F)O3)c(F)cc1Cl [F334]	60 to 74%
COC(=O)c1nc(-c2ccc(C(F)(F)F)c(Br)c2Cl)c(F)cc1Cl [F341]	45 to 59%
Cc1cc(C(F)(F)F)ccc1-c1nc(C(=O)O)c(Cl)cc1F [F267]	45 to 59%
C#Cc1cc(C(F)(F)F)cc(Cl)c1-c1ccc(Cl)c(C(=O)OC)n1 [F239]	0 to 29%
COC(=O)c1nc(-c2cc(OC)c(C(F)(F)F)cc2Cl)c(F)cc1Cl [F331]	0 to 29%
C=Cc1c(C(F)(F)F)ccc(-c2nc(C(=O)OC)c(Cl)cc2F)c1Cl [F338]	30 to 44%

Taken from patent US20230017045A1.
